Would you mind telling me the reported GI50 of each entry?
Test system: NCI-H226 lung
Test: NCI tumour cell line growth inhibition, 48 h

Reference set (4 entries):
- compound: "C=C1C(=O)O[C@H]2[C@H]1CC/C(COC(=O)NCc1ccc(Cn3c(=O)sn(CCCI)c3=O)cc1)=C\\CC[C@@]1(C)O[C@@H]21"
  GI50: "14.1 µM"
- compound: "C=CN(C(=O)N1CCN(c2cc3c(cc2F)c(=O)c(C(=O)O)cn3C2CC2)CC1)c1nc(-c2ccc(C)cc2)cs1"
  GI50: "2.91 µM"
- compound: "CC(C)OC(=O)OCOP(=O)(OCOC(=O)OC(C)C)C1CCCN(O)C1=O (stereo not given)"
  GI50: "1.36 µM"
- compound: "CNC(=S)N/N=C/CSC/C=N/NC(=S)NC"
  GI50: "> 100 µM"

With those in mind, consider the next compound.
Input: Write down measured GI50 (NCI-H226 lung) for this compound. O=c1[nH]c(-c2ccncc2)nc2sc3c(c12)CCCCCC3
Output: > 100 µM

###

Test system: SK-MEL-2 melanoma
Experiment: NCI tumour cell line growth inhibition, 48 h
Would you mind telling me the reported GI50 of each entry?

Dear colleague, could you send me GI50 for each of the items below? Thanks.
1. CC1(C)CCC(c2ccc(Cl)cc2)=C(CN2CCN(c3ccc(C(=O)NS(=O)(=O)c4ccc(N[C@H](CCN5CCOCC5)CSc5ccccc5)c(S(=O)(=O)C(F)(F)F)c4)cc3)CC2)C1
2. CC1SC(c2ccc(OCc3ccccc3)cc2)N(NC(=O)C(O)(c2ccccc2)c2ccccc2)C1=O (stereo not drawn)

Output:
1. 1.86 µM
2. 4.36 µM

Dear colleague, could you send me GI50 for each of the items below? Thanks.
1. CC1(C)N=C(N)N=C(N)N1c1cccc(CC(=O)Nc2ccccc2)c1
2. CCC[CH2][Sn]1([CH2]CCC)[O]C(=O)c2cccnc2[S]1
3. OC1(c2ccccc2)c2ccccc2N(c2ccccc2)c2ccc(Cl)cc21 (stereo not drawn)
4. CC(=O)Nc1ccc(/C=C/C(=O)c2sc(-n3nc(-c4ccccc4)cc3-c3ccccc3)nc2C)cc1
5. COc1ccc2c(c1)OCC1c3cc(OC)ccc3OC21 (stereo not drawn)

Output:
1: > 100 µM; 2: 2.11 µM; 3: 0.24 µM; 4: > 100 µM; 5: 94.3 µM

Input: Find the measured GI50 of Cc1nn(-c2ccccc2)c2c1[C@@H](C)[C@H]1CC3(CC4(C)C[C@@H]3C1(C)c1c(C)nn(-c3ccccc3)c1N4C)N2C (stereo partly drawn) and report it.
Output: > 100 µM

###

Test system: SF-268 CNS
Test: NCI tumour cell line growth inhibition, 48 h
# if value of TGI reaches 50 µM, tag Met; if it stays below, tag Not met

Use these answered entries as a reference point.
- compound: "CN(C)CCCn1c2c(c3ccc(N4CCNCC4)cc3c1=O)C(=O)c1ccccc1-2"
  label value: "Not met"
- compound: "COc1cc(OC)cc(Oc2nc3ccc(C(F)(F)F)cc3nc2-c2ccccc2)c1"
  label value: "Met"
- compound: "CC(C)=CCN1c2ccccc2[C@@]2(CC=C(C)C)CCN(C)[C@@H]12"
  label value: "Met"
- compound: "CCOC(=O)c1cn2c(n1)sc1cc([N+](=O)[O-])ccc12"
  label value: "Met"
- compound: "O=C(NNC(=O)c1cc2ccccc2[nH]1)c1cc2ccccc2[nH]1"
  label value: "Met"

Input: Dear colleague, could you confirm whether Nc1ncnc2c1ncn2C1SC(CO)C(O)C1O (stereo unspecified) has TGI at or above 50 µM?
Output: Met

Input: Dear colleague, could you confirm whether CC1(C)CCC(c2ccc(Cl)cc2)=C(CN2CCN(c3ccc(C(=O)NS(=O)(=O)c4ccc(N[C@H](CCN5CCOCC5)CSc5ccccc5)c(S(=O)(=O)C(F)(F)F)c4)cc3)CC2)C1 has TGI at or above 50 µM?
Output: Not met

Input: Dear colleague, could you confirm whether N#CN1CCC2CC(=O)CCC2C1 (stereo unspecified) has TGI at or above 50 µM?
Output: Met

Input: Dear colleague, could you confirm whether O=P(c1ccccc1)(c1ccccc1)C1CC=C2CCCCCC2C1 (stereo unspecified) has TGI at or above 50 µM?
Output: Met

Input: Dear colleague, could you confirm whether CN1CN(c2ccccc2)C2(CCN(CCCN(C)c3ccc(F)cc3)CC2)C1=O has TGI at or above 50 µM?
Output: Met
